The reported numbers originate from ChEMBL document CHEMBL1151757.

# Test details: Drug uptake in anesthetized cynomolgus monkey brain occipital lobe after 0.5 mins postinjection
# Format: ADME, organism-based, Macaca fascicularis
# Condition: in vivo
Reported property: Drug uptake
Numbers only.

Solved entries (count: 4):
| Compound | Drug uptake |
| --- | --- |
| O=C(OCCC[18F])C1C2CCC(CC1c1cccc(/C=C\I)c1)N2 (stereo not given) | 0.01 |
| O=C(OCC[18F])C1C2CCC(CC1c1ccc(/C=C\I)cc1)N2 (stereo not given) | 0 |
| O=C(OCC[18F])C1C2CCC(CC1c1cccc(/C=C\I)c1)N2 (stereo not given) | 0 |
| O=C(OCC[18F])C1C2CCC(CC1c1cccc(/C=C\Br)c1)N2 (stereo not given) | 0.01 |

Lab book: Drug uptake of O=C(OCCC[18F])C1C2CCC(CC1c1cccc(/C=C\Br)c1)N2 (stereo not given) noted as 0.01
